The values you see were collected from ChEMBL document CHEMBL4393657.

- Tested on: Cryptococcus neoformans
- method notes: Antifungal activity against Cryptococcus neoformans LA314 assessed as reduction in fungal cell growth incubated for 48 hrs by broth microdilution method
- Format: functional
- condition label: LA314, 48 h
experimental readout: MIC

Solved cases (2 shown):
[[record]]
molecule = "CC(n1nnc(CCN2CCN(c3cccc(Cl)c3)CC2)n1)C(O)(Cn1cncn1)c1ccc(F)cc1F (stereo not drawn)"
assay_system = "Cryptococcus neoformans"
test_value = "1 to 16 µg/mL"

[[record]]
molecule = "CC(n1nnnc1CCN1CCN(c2c(Cl)cccc2Cl)CC1)C(O)(Cn1cncn1)c1ccc(F)cc1F (stereo not drawn)"
assay_system = "Cryptococcus neoformans"
test_value = "0.5 to 16 µg/mL"


Continue with the next molecule.
Form field: reported MIC of C[C@H](n1nnc(CCN2CCN(c3cccc(Cl)c3)CC2)n1)[C@](O)(Cn1cncn1)c1ccc(F)cc1F 0.25 to 16 µg/mL
